B1: RHOBTB2 (parent)
chain: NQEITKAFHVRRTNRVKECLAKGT

variants of: B1; experiment: protein stability index of a GFP-peptide fusion (GPS, HEK-293T) (PSI 1-6); higher = more stable; conditions: c terminus: a fixed tail appended;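 note: lentivirally expressed fusions sorted by FACS into six bins by GFP to DsRed ratio, PSI derived from sequencing read proportions per bin multiplied by bin number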
Measured protein stability index determines class: lower segment: < 3; middle segment: ≥ 3 and < 4; upper segment: ≥ 4

In [3]: df
Out[3]:
    variant_id    answer_label
 0        L20T  middle segment
 1         H9M   lower segment
 2        V10T   upper segment
 3        C19E  middle segment
 4         I4D   upper segment
 5        N14V   lower segment
 6        V10K   upper segment
 7        K22E  middle segment
 8        E18S   lower segment
 9        C19I   lower segment
10         Q2W   lower segment
11        R15T  middle segment
12         A7D  middle segment
13        R11L  middle segment
14         N1H   lower segment
15         E3H   lower segment
16         F8I   upper segment
17        G23A   lower segment
18        R11F  middle segment
19         F8N   upper segment
20        C19M   lower segment
21         H9V   lower segment
22        R15V  middle segment
23        V10E   upper segment
24         E3P  middle segment
25        T24P  middle segment
26        K17T  middle segment
27        A21C   lower segment
28         Q2G   lower segment
29        T24I   lower segment
30         H9N   upper segment
31         I4H   upper segment
32        L20K  middle segment
33        V10G  middle segment
34        V16R  middle segment
35        K17F   lower segment
36        T13H  middle segment
37         T5M  middle segment
38         Q2C  middle segment
39         E3I   lower segment
40        V16M   lower segment
41        K22A   upper segment
42        C19H   lower segment
43         I4W  middle segment
44        E18F   lower segment
45        V10H   upper segment
46        L20W   lower segment
47         T5P  middle segment
48        K22R  middle segment
49         Q2L   lower segment
50        G23D   lower segment
51         N1F   lower segment
52         K6M   lower segment
53        R15A  middle segment
54        A21H   lower segment
55         F8T   upper segment
56        A21I   lower segment
57         T5G   lower segment
58         I4K  middle segment
59         A7W  middle segment
60         A7P   upper segment
61        R12C   lower segment
62        N14Y   lower segment
63         E3Y   lower segment
64        G23E  middle segment
65         F8S   upper segment
66         N1P   upper segment
67         I4S   upper segment
68        T24W   lower segment
69        R12W   lower segment
